Property: viability, T/C; scope: individual molecules
- Test system: 855422-203-R-J1-PDC complex spheroid viability;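 further: spheroids exposed to compounds for seven days before readout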
- assay_summary: Anticancer human tumor 855422-203-R-J1-PDC patient-derived bladder carcinoma cell line growth inhibition [POLQ]
- condition_set: second compound 3.16 µM; first compound 0.01 µM; stronger effect = lower value

Solved cases below.
>  <molecule>
C=CCn1c(=O)c2cnc(Nc3ccc(N4CCN(C)CC4)cc3)nc2n1-c1cccc(C(C)(C)O)n1 + Nc1ccc(C#CCN(C(=O)Cc2ncc(C(F)(F)F)cc2C(F)(F)F)c2ccc(F)cc2)nn1

>  <subject_of_test>
855422-203-R-J1-PDC complex spheroid viability;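 further: spheroids exposed to compounds for seven days before readout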

>  <viability, T/C>
112%

$$$$
>  <molecule>
Cn1ncnc1[C@H]1c2n[nH]c(=O)c3cc(F)cc(c23)N[C@@H]1c1ccc(F)cc1 + Nc1ccc(C#CCN(C(=O)Cc2ncc(C(F)(F)F)cc2C(F)(F)F)c2ccc(F)cc2)nn1

>  <subject_of_test>
855422-203-R-J1-PDC complex spheroid viability;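 further: spheroids exposed to compounds for seven days before readout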

>  <viability, T/C>
106%

$$$$
>  <molecule>
CCc1c2c(nc3ccc(O)cc13)-c1cc3c(c(=O)n1C2)COC(=O)[C@]3(O)CC + Nc1ccc(C#CCN(C(=O)Cc2ncc(C(F)(F)F)cc2C(F)(F)F)c2ccc(F)cc2)nn1

>  <subject_of_test>
855422-203-R-J1-PDC complex spheroid viability;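 further: spheroids exposed to compounds for seven days before readout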

>  <viability, T/C>
29.9%

$$$$
>  <molecule>
CCc1c2c(nc3ccc(O)cc13)-c1cc3c(c(=O)n1C2)COC(=O)[C@]3(O)CC + Cc1cccc(N(C)C(=O)C2C(O)CCN2c2nc(C)cc(C(F)(F)F)c2C#N)c1

>  <subject_of_test>
855422-203-R-J1-PDC complex spheroid viability;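 further: spheroids exposed to compounds for seven days before readout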

>  <viability, T/C>
12.1%

$$$$

Please turn your attention to the following entry.
Prompt: Name the value of viability, T/C reported for COc1cccc(OCCCN)c1-c1cc(Nc2cnc(C#N)cn2)n[nH]1 + COC1C(OC(N)=O)C(O)C(Oc2ccc3c(O)c(NC(=O)c4ccc(O)c(CC=C(C)C)c4)c(=O)oc3c2C)OC1(C)C when tested on 855422-203-R-J1-PDC complex spheroid viability.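 Further: spheroids exposed to compounds for seven days before readout.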
Response: 74.9%

Reference for the values: PubChem BioAssay AID1963838
